target.or.test.system: huPD-L1 (Homo sapiens, UniProt Q9NZQ7)
Sequence (Q9NZQ7 19-290): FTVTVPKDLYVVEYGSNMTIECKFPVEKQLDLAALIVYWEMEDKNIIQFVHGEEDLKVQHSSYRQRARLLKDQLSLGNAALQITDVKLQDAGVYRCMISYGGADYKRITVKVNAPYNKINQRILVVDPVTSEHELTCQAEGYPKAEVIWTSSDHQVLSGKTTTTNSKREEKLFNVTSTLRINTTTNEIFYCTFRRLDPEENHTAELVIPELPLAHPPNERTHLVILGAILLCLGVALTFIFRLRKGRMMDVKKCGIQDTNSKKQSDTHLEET
measurement.protocol: Flow binding to CHO cells stably expressing PD-L1
Parameters: huCTLA4 and huPD-L1, full-length mammalian surface expression constructs were generated; expressed in transfected cells; host or cells: CHO cells, lentiviral transduction, sorted to >98% purity
measurement.context: Table E11; CHO cells stably expressing PD-L1; 33.3 nM
Each entry below carries its reported PD-L1 MFI at 33.3 nM.
Reply: number alone, nothing else.

E35D/D46E/M47L/V68M/T79M/L85M (protein, UniProt P33681 35-288, looked up, variant E35D D46E M47L V68M T79M L85M) T-lymphocyte activation …: VIHVTKEVKEVATLSCGHNVSVEELAQTRIYWQKDKKMVLTMMSGELNIWPEYKNRTIFDITNNLSIMILALRPSDEGMYECVVMKYEKDAFKREHLAEVTLSVKADFPTPSISDFEIPTSNIRRIICSTSGGFPEPHLSWLENGEELNAINTTVSQDPETELYAVSSKLDFNMTTNHSFMCLIKYGHLRVNQTFNWNTTKQEHFPDNLLPSWAITLISVNGIFVICCLTYCFAPRCRERRRNERLRRESVRPV : 8641

// moving on: another record for PD-L1 MFI at 33.3 nM
Record summary for H18Y/V22D/E35D/M47V/N48K/V68M (protein, UniProt P33681 35-288, looked up, variant H18Y V22D E35D M47V N48K V68M) T-lymphocyte activation …: VIHVTKEVKEVATLSCGYNVSDEELAQTRIYWQKDKKMVLTMMSGDVKIWPEYKNRTIFDITNNLSIMILALRPSDEGTYECVVLKYEKDAFKREHLAEVTLSVKADFPTPSISDFEIPTSNIRRIICSTSGGFPEPHLSWLENGEELNAINTTVSQDPETELYAVSSKLDFNMTTNHSFMCLIKYGHLRVNQTFNWNTTKQEHFPDNLLPSWAITLISVNGIFVICCLTYCFAPRCRERRRNERLRRESVRPV : reported PD-L1 MFI at 33.3 nM = 12867
